target_or_system: IKZF2 (Homo sapiens, UniProt Q96SW2+Q9UKS7)
Construct: CRISPR/Cas9—mediated insertion of the HiBiT peptide tag (Promega™) to the N-terminus of the IKZF2 gene locus; endogenous in cells; host or cells: MOLT4 cells, with CRISPR/Cas9 knock-in of HiBiT at the endogenous IKZF2 locus
Sequence (Q9UKS7 whole entry): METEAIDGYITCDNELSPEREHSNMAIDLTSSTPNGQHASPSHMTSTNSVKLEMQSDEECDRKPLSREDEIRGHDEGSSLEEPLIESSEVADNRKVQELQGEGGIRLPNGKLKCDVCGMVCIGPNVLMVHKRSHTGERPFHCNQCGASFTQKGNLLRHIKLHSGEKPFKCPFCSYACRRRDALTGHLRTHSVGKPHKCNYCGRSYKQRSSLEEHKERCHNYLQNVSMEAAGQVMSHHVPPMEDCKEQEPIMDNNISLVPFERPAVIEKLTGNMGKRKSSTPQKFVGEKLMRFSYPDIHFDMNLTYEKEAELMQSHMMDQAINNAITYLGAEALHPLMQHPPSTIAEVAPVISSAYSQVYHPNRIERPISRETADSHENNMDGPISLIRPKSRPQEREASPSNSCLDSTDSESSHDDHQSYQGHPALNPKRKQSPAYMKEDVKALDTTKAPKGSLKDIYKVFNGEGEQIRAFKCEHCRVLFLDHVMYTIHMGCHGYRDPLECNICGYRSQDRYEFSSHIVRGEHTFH
Sequence (Q96SW2 whole entry): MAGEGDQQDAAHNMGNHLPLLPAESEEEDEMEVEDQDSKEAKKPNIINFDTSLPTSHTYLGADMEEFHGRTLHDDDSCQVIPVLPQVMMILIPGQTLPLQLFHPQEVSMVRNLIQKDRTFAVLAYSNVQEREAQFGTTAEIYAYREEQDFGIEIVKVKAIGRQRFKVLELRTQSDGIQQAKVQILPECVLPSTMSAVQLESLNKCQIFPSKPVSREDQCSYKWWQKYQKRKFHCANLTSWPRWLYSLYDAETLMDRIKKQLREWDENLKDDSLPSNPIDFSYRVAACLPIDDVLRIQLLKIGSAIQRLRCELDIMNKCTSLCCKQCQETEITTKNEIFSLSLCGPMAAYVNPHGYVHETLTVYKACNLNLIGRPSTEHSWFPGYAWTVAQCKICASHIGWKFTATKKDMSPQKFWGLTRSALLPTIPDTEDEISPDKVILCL
Sequence (Q16531 whole entry partner): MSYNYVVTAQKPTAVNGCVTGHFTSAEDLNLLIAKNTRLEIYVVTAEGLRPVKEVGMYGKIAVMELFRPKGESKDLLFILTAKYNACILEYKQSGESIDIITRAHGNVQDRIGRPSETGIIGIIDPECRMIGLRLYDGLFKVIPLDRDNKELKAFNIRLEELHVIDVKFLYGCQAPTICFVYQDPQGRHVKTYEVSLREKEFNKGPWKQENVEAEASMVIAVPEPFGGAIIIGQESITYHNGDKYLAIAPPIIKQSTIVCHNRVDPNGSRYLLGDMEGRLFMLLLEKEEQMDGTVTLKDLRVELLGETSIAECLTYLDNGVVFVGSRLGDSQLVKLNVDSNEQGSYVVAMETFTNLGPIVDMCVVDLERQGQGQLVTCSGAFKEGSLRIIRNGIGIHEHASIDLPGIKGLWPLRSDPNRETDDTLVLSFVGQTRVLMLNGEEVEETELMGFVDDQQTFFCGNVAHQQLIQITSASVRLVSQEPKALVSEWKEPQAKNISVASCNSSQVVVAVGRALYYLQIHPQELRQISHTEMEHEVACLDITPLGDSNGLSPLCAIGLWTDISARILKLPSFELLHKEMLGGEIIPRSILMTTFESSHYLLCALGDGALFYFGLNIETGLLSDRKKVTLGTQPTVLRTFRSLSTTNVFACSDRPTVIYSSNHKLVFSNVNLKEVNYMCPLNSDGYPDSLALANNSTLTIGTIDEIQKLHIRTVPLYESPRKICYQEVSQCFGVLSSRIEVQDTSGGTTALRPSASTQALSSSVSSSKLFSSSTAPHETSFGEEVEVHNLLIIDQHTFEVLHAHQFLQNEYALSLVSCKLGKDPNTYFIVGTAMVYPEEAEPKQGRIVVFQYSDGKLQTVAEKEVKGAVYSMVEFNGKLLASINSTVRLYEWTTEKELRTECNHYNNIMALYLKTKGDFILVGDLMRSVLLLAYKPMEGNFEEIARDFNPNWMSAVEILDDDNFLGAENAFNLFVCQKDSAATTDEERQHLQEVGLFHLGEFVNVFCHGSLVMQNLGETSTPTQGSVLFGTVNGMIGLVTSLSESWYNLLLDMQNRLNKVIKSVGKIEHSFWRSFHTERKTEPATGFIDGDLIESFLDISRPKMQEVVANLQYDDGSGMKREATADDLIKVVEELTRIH
assay_summary: HiBit-IKZF2 assay (HiBiT-Helios degradation in MOLT4 cells)
Format: cell-based
condition_info: MOLT-4, extent of degradation from highest to lowest concentration, 10 μM to 0.00026 μM, read-out: Dmax
endpoint_name: Dmax

Some solved cases for reference:
O=C1CCC(N2Cc3cc(C4(O)CCN(Cc5cccc(F)c5F)CC4)ccc3C2=O)C(=O)N1 (stereo not shown) :: > 70%
CN(c1ccccc1)S(=O)(=O)c1cccc(CN2CCC(c3ccc4c(c3)CN(C3CCC(=O)NC3=O)C4=O)CC2)c1 (stereo not shown) :: 50 to 70%
O=C1CCC(N2Cc3cc(C4CCN(Cc5cccc(Nc6cccnn6)c5)CC4)ccc3C2=O)C(=O)N1 (stereo not shown) :: 50 to 70%

Req: Give the reported value of Dmax for this record: O=C1CCC(N2Cc3cc(C4CCN(Cc5ccc(N6CCCC6=O)cc5)CC4)ccc3C2=O)C(=O)N1 (stereo not shown)
Resp: 50 to 70%

Req: Quick one: give measured Dmax for O=C1CCC(N2Cc3cc(C4(O)CCN(Cc5c(F)cccc5F)CC4)ccc3C2=O)C(=O)N1 (stereo not shown)
Resp: 50 to 70%

Req: Return reported Dmax. Input compound: O=C1CCC(N2Cc3cc(C4CCN(Cc5cccc(NC(=O)c6ccccc6)c5)CC4)ccc3C2=O)C(=O)N1 (stereo not shown)
Resp: 50 to 70%

Req: Let me know recorded Dmax for O=C1CCC(N2Cc3cc(C4(O)CCN(Cc5ccc(C6CC6)cc5)CC4)ccc3C2=O)C(=O)N1 (stereo not shown) , thanks.
Resp: > 70%

###

target_or_system: IKZF2 (Homo sapiens, UniProt Q96SW2+Q9UKS7)
Construct: CRISPR/Cas9—mediated insertion of the HiBiT peptide tag (Promega™) to the N-terminus of the IKZF2 gene locus; endogenous in cells; host or cells: MOLT4 cells, with CRISPR/Cas9 knock-in of HiBiT at the endogenous IKZF2 locus
assay_summary: HiBit-IKZF2 assay (HiBiT-Helios degradation in MOLT4 cells)
Format: cell-based
condition_info: MOLT-4, extent of degradation from highest to lowest concentration, 10 μM to 0.00026 μM, read-out: Dmax
endpoint_name: Dmax

Reference set (3 entries):
O=C1CCC(N2Cc3cc(C4CCN(Cc5ccc6c(c5)C(=O)N(c5ccc(F)cc5)C6)CC4)ccc3C2=O)C(=O)N1 (stereo not shown) :: 50 to 70%
O=C1CCC(N2Cc3cc(C4CCN(Cc5ccc(Nc6ccccc6)nc5)CC4)ccc3C2=O)C(=O)N1 (stereo not shown) :: 50 to 70%
O=C1CCC(N2Cc3cc(C4CCN(Cc5cccc(N6C(=O)Cc7cccnc76)c5)CC4)ccc3C2=O)C(=O)N1 (stereo not shown) :: 30 to 50%

Req: With IKZF2 (Homo sapiens, UniProt Q96SW2+Q9UKS7) as the test system, provide measured Dmax for this compound: O=C1CCC(N2Cc3cc(C4(O)CCN(Cc5cccc6scnc56)CC4)ccc3C2=O)C(=O)N1 (stereo not shown)
Resp: > 70%

Req: Answer briefly: Dmax recorded on IKZF2 (Homo sapiens, UniProt Q96SW2+Q9UKS7) for O=C1CCC(N2Cc3cc(C4(O)CCN(Cc5cccc(OCc6ccccc6)c5)CC4)ccc3C2=O)C(=O)N1 (stereo not shown)
Resp: > 70%

Req: Quote Dmax with test system IKZF2 (Homo sapiens, UniProt Q96SW2+Q9UKS7) for O=C1CCC(N2Cc3cc(C4CCN(Cc5ccc6c(c5)C(=O)N(c5ccccc5)CC6)CC4)ccc3C2=O)C(=O)N1 (stereo not shown)
Resp: 50 to 70%

Req: Would you please give the reported Dmax of O=C1CCC(N2Cc3cc(C4(O)CCN(Cc5ccccc5-c5ccccc5)CC4)ccc3C2=O)C(=O)N1 (stereo not shown) with IKZF2 (Homo sapiens, UniProt Q96SW2+Q9UKS7)?
Resp: 50 to 70%

###

target_or_system: IKZF2 (Homo sapiens, UniProt Q96SW2+Q9UKS7)
Construct: CRISPR/Cas9—mediated insertion of the HiBiT peptide tag (Promega™) to the N-terminus of the IKZF2 gene locus; endogenous in cells; host or cells: MOLT4 cells, with CRISPR/Cas9 knock-in of HiBiT at the endogenous IKZF2 locus
assay_summary: HiBit-IKZF2 assay (HiBiT-Helios degradation in MOLT4 cells)
Assay type: cell-based
condition_info: concentration at which 50% of HiBiT-Helios degradation was achieved
Catalogue of DC50 values

These recorded examples may help you get a feel for the data.
O=C1CCC(N2Cc3cc(C4CCN(Cc5cccc(N6Cc7ccccc7S6(=O)=O)c5)CC4)ccc3C2=O)C(=O)N1 (stereo not shown) :: < 10 nM
O=C1CCC(N2Cc3cc(C4(O)CCN(Cc5ccc6c(c5)C(=O)N(c5ccns5)C6)CC4)ccc3C2=O)C(=O)N1 (stereo not shown) :: < 10 nM
O=C1CCC(N2Cc3cc(C4CCN(Cc5ccc(S(=O)(=O)N6CCC7(CC7)C6)cc5)CC4)ccc3C2=O)C(=O)N1 (stereo not shown) :: < 10 nM
O=C1CCC(N2Cc3cc(C4(O)CCN(Cc5cccc(OCc6ccccc6)c5)CC4)ccc3C2=O)C(=O)N1 (stereo not shown) :: < 10 nM
N#Cc1cccc(CN2CCC(O)(c3ccc4c(c3)CN(C3CCC(=O)NC3=O)C4=O)CC2)c1 (stereo not shown) :: < 10 nM
O=C1CCC(N2Cc3cc(C4CCN(Cc5cnc(Nc6ccccc6)s5)CC4)ccc3C2=O)C(=O)N1 (stereo not shown) :: 10 to 30 nM

Req: Specify measured DC50 for O=C1CCC(N2Cc3cc(C4(O)CCN(Cc5nc6ccccc6s5)CC4)ccc3C2=O)C(=O)N1 (stereo not shown) .
Resp: 10 to 30 nM

###

target_or_system: IKZF2 (Homo sapiens, UniProt Q96SW2+Q9UKS7)
Construct: CRISPR/Cas9—mediated insertion of the HiBiT peptide tag (Promega™) to the N-terminus of the IKZF2 gene locus; endogenous in cells; host or cells: MOLT4 cells, with CRISPR/Cas9 knock-in of HiBiT at the endogenous IKZF2 locus
assay_summary: HiBit-IKZF2 assay (HiBiT-Helios degradation in MOLT4 cells)
Format: cell-based
condition_info: concentration at which 50% of HiBiT-Helios degradation was achieved
Each entry below carries its recorded DC50.

Here are 4 compounds together with their reported answers.
O=C1CCC(N2Cc3cc(C4CCN(Cc5cccc(S(=O)(=O)N6CC7(COC7)C6)c5)CC4)ccc3C2=O)C(=O)N1 (stereo not shown) [Compound 62] :: 30 to 150 nM
O=C1CCC(N2Cc3cc(C4CCN(Cc5ccc6c(c5)C(=O)N(c5ncccc5F)C6)CC4)ccc3C2=O)C(=O)N1 (stereo not shown) [Compound 221] :: < 10 nM
O=C1CCC(N2Cc3cc(C4CCN(Cc5ccnc(Nc6ccccc6)c5)CC4)ccc3C2=O)C(=O)N1 (stereo not shown) [Compound 137] :: < 10 nM
O=C1CCC(N2Cc3cc(C4(O)CCN(Cc5ccccc5Cl)CC4)ccc3C2=O)C(=O)N1 (stereo not shown) [Compound 267] :: < 10 nM

Req: Give DC50 for the following compound: O=C1CCC(N2Cc3cc(C4CCN(Cc5cccc6c5C(=O)N(c5ccccc5)C6)CC4)ccc3C2=O)C(=O)N1 (stereo not shown) [Compound 121]
Resp: 30 to 150 nM

Req: For the compound O=C1CCC(N2Cc3cc(C4CCN(Cc5cccc(N6CCC7(CC7)C6=O)c5)CC4)ccc3C2=O)C(=O)N1 (stereo not shown) [Compound 10] , give its reported DC50.
Resp: 10 to 30 nM

Req: Answer with the recorded DC50 of CP(C)(=O)c1ccccc1NC(=O)c1cccc(CN2CCC(c3ccc4c(c3)CN(C3CCC(=O)NC3=O)C4=O)CC2)c1 (stereo not shown) [Compound 138] only.
Resp: < 10 nM

###

target_or_system: IKZF2 (Homo sapiens, UniProt Q96SW2+Q9UKS7)
Construct: CRISPR/Cas9—mediated insertion of the HiBiT peptide tag (Promega™) to the N-terminus of the IKZF2 gene locus; endogenous in cells; host or cells: MOLT4 cells, with CRISPR/Cas9 knock-in of HiBiT at the endogenous IKZF2 locus
assay_summary: HiBit-IKZF2 assay (HiBiT-Helios degradation in MOLT4 cells)
Format: cell-based
condition_info: MOLT-4, extent of degradation from highest to lowest concentration, 10 μM to 0.00026 μM, read-out: Dmax
endpoint_name: Dmax

Sample answers from the record:
COc1cccc(CN2CCC(O)(c3ccc4c(c3)CN(C3CCC(=O)NC3=O)C4=O)CC2)c1 (stereo not drawn) :: > 70%
Cc1cnc(Nc2cccc(CN3CCC(c4ccc5c(c4)CN(C4CCC(=O)NC4=O)C5=O)CC3)c2)nc1 (stereo not drawn) :: 50 to 70%
O=C1CCC(N2Cc3cc(C4(O)CCN(Cc5ccnc(Nc6ccccc6)n5)CC4)ccc3C2=O)C(=O)N1 (stereo not drawn) :: > 70%

Req: Specify Dmax for O=C1CCC(N2Cc3cc(C4(O)CCN(Cc5cccnc5Oc5ccccc5)CC4)ccc3C2=O)C(=O)N1 (stereo not drawn) and stop.
Resp: 50 to 70%

Req: Read off the recorded Dmax for O=C1CCC(N2Cc3cc(C4CCN(Cc5cccc(N6CCC7(CC7)C6=O)c5)CC4)ccc3C2=O)C(=O)N1 (stereo not drawn)
Resp: 30 to 50%

Req: Give recorded Dmax. O=C1CCC(N2Cc3cc(C4CCN(Cc5ccccc5Nc5ccccn5)CC4)ccc3C2=O)C(=O)N1 (stereo not drawn)
Resp: 50 to 70%

Req: Quickly give me recorded Dmax for O=C1CCC(N2Cc3cc(C4CCN(Cc5ccc(S(=O)(=O)N(c6ccccc6)C6COC6)cc5)CC4)ccc3C2=O)C(=O)N1 (stereo not drawn)
Resp: 50 to 70%

Req: Supply recorded Dmax for N#CC1(COc2ccccc2CN2CCC(O)(c3ccc4c(c3)CN(C3CCC(=O)NC3=O)C4=O)CC2)CC1 (stereo not drawn) here.
Resp: 50 to 70%

Req: For O=C1CCC(N2Cc3cc(C4(O)CCN(Cc5ccnc(Nc6ccccc6)c5F)CC4)ccc3C2=O)C(=O)N1 (stereo not drawn) , write its Dmax.
Resp: > 70%
